The measured values listed here are drawn from ChEMBL document CHEMBL3817763.

Molecular target: Protein farnesyltransferase (Homo sapiens) (UniProt P49354+P49356)
Assay: Ratio of Kcat to Km for recombinant FTase (unknown origin) using dansyl-GCVLS as co-substrate assessed as protein prenylation by spectrofluorometric method relative to FPP
Assay type: protein-complex assay
Metric Name: Ratio

Compound | Target Entity | Measured Value
CCCCCCCC/C(C)=C/CC/C(C)=C/COP(=O)(O)OP(=O)(O)O | Protein farnesyltransferase (Homo sapiens) (UniProt P49354+P49356) | 0.21
CC(C)=CCCCCCCCCC/C(C)=C/COP(=O)(O)OP(=O)(O)O | Protein farnesyltransferase (Homo sapiens) (UniProt P49354+P49356) | 0.15
CC(C)=CCCCCCCCCCC/C(C)=C/COP(=O)(O)OP(=O)(O)O | Protein farnesyltransferase (Homo sapiens) (UniProt P49354+P49356) | 0.15
CCCCCCCCCCC/C(C)=C/COP(=O)(O)OP(=O)(O)O | Protein farnesyltransferase (Homo sapiens) (UniProt P49354+P49356) | 0.18
C/C(=C\COP(=O)(O)OP(=O)(O)O)CC/C=C(\C)CCCC(C)CCCC(C)C (stereo not given) | Protein farnesyltransferase (Homo sapiens) (UniProt P49354+P49356) | 0.05
CCCCCCC/C(C)=C/CC/C(C)=C/COP(=O)(O)OP(=O)(O)O | Protein farnesyltransferase (Homo sapiens) (UniProt P49354+P49356) | 0.15
CCCCCC/C(C)=C/CC/C(C)=C/COP(=O)(O)OP(=O)(O)O | Protein farnesyltransferase (Homo sapiens) (UniProt P49354+P49356) | 0.35
CCCCCCCCCCCCC/C(C)=C/COP(=O)(O)OP(=O)(O)O | Protein farnesyltransferase (Homo sapiens) (UniProt P49354+P49356) | 0.09
CCCCCCCCC/C(C)=C/CC/C(C)=C/COP(=O)(O)OP(=O)(O)O | Protein farnesyltransferase (Homo sapiens) (UniProt P49354+P49356) | 0.72
CCCCCCCCCCCC/C(C)=C/COP(=O)(O)OP(=O)(O)O | Protein farnesyltransferase (Homo sapiens) (UniProt P49354+P49356) | 0.24
